- ASSAY PROCEDURE: protease stability score; higher = more stable; yeast display proteolysis, trypsin and chymotrypsin;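 note: log10 excess protease needed over predicted unfolded state with 0 meaning unfolded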
VALUE TYPE: protease stability score
The answer should be written as a number, with no unit following it.

Enquiry: State the recorded protease stability score for this entry: DERRQQEVLKRFIDALQTGDPQKLKELADPNAQVNVGDKTFHGRDELVRQVEDEKRRIDEFHVVSIENHGDHVTARFRKESDGHQTEFVMKAYVHNGKVQSVKIDSS
Return: 0.201

Enquiry: What about this sequence? DERDRHKQVEEMINAFDDGDEETIKELMDEDVRAQIGNKRVHGQENVSRILKEFRDRADHIQVDTYHVEGDRAQIHAKVEVNGRRIKVSIHVQLENGRFKSFVIEYTDSDKLREMQS
Return: 0.909

Enquiry: Same for DEDDRRRQARKLASALVTGNHQEVRELADKDVHAEYGDRRYRGREKLDEAAKDMHKQADSLTVRDVKFTGDKVNIDLQLNINGRRLTVSLTAQLENGRFKEIVVQVTDPETLRHVKQ
Return: -0.03

Enquiry: Input DTQEKLKHWWKHVQENIKTGDEDRLHEMVDPNASVQVGDKELHGREKIATTYVELMSRVDHVRIQITELEVHGNDFDLTFNYEADVNGRKEHDHYRVVLQEHNGQLRLVQMSEG
Return: 0.747
